experiment: Selectivity ratio of GI50 for HUVEC cells to GI50 for human HREC cells; format: ADME, cell-based; conditions: HUVEC cells and HREC cells, read-out: RatioGI50

# compound, selectivity ratio
records = [
    ("COc1ccc(CC2COc3cc(OC)c(OC)c(OC)c3C2=O)cc1OC(=O)[C@H](Cc1ccccc1)NC(=O)OC(C)(C)C (stereo partly specified)", 14),
]

----------
tested on: Y79; assay: Growth inhibition of human Y79 cells assessed as reduction in cell number after 48 hrs by alamarBlue based fluorescence assay; format: functional; details: Y79, 48 h
outcome measure: GI50

# compound, value
measured = [
    ("COc1ccc(/C=C2\\COc3cc(OC)c(OC)c(OC)c3C2=O)cc1F", "9.8 µM"),
    ("COc1cc2c(c(OC)c1OC)C(=O)/C(=C/c1ccc(OCc3ccccc3)c(OCc3ccccc3)c1)CO2", "32 µM"),
    ("C=CCOc1cc(/C=C2\\COc3cc(OC)c(OC)c(OC)c3C2=O)ccc1OC", "2.8 µM"),
    ("COc1ccc(CC2COc3cc(OC)c(OC)c(OC)c3C2=O)cc1O (stereo not given)", "> 100 µM"),
    ("C=CCOc1ccc(C[C@H](NC(=O)OC(C)(C)C)C(=O)Oc2cc(CC3COc4cc(OC)c(OC)c(OC)c4C3=O)ccc2OC)cc1 (stereo not given in full)", "52 µM"),
]
